System: EKVX
Assay: NCI tumour cell line growth inhibition, 48 h
Calls of active or inactive are those of the source. Rule as the data show it: active = GI50 up to about 1.1 µM and inactive = higher.
Measured GI50 values are reported for all entries that follow.
property name: GI50

INSERT INTO results (molecule, result) VALUES
  ('COc1ccc(-n2c(CCCC(=O)O)nc3c2C(=O)c2ccccc2C3=O)cc1', '60.7 µM (inactive)'),
  ('Cc1cc2[nH]c3c(C#N)c(-c4ccccc4)c(/C=N/c4ccc(Cl)cc4)c(=O)n3c2cc1C', '> 100 µM (inactive)'),
  ('O=C(O)c1ccccc1NC(=S)c1ccccc1', '37.8 µM (inactive)'),
  ('COc1ccc2nc(NC(=O)/C(C#N)=C/c3ccccc3)sc2c1', '38.4 µM (inactive)'),
  ('Cc1cc(O)c2c(=O)c3ccccc3[nH]c2c1', '41.1 µM (inactive)'),
  ('COc1ccc(-c2c3c(nc4nc(SC)nc(SC)c24)CCCC3)cc1OC', '70 µM (inactive)'),
  ('CCOC(=O)C(C(C)=O)C1CC=CC1 (configuration not stated)', '> 100 µM (inactive)'),
  ('CCOC(=O)CCc1c(C)c2ccc(O)cc2oc1=O', '> 100 µM (inactive)'),
  ('CN(C)c1nc(N)c(C#N)c(C#N)c1C#N', '> 10 µM (inactive)'),
  ('CCCC1(N)CC(OC)OC(C)C1O (configuration not stated)', '> 100 µM (inactive)'),
  ('CC(=O)NC1=C(C)C(=O)c2c(nc3n2CCC3O)C1=O (configuration not stated)', '24.7 µM (inactive)'),
  ('O=C(OCc1ccccc1)n1cccc1', '> 100 µM (inactive)');

---

Tested on: SF-539
Assay: NCI tumour cell line growth inhibition, 48 h
The source made the active and inactive calls. Rule as the data show it: active = GI50 up to about 1.1 µM and inactive = higher.
property name: GI50

INSERT INTO assay_data (molecule, result) VALUES
  ('C#CCN(N=O)C(=O)ON1C(=O)CCC1=O', '> 100 µM (inactive)'),
  ('O=S(=O)(c1cccc(C(F)(F)F)c1)N1c2ccccc2-n2cccc2C1c1cccnc1 (configuration not stated)', '28 µM (inactive)'),
  ('CCOc1ccc2nc3nc(O)nc(C)c3c(NCCCN(CC)CC)c2c1', '> 100 µM (inactive)'),
  ('O=c1[nH]nc(N/N=C\c2ccc(Cl)cc2)c2ccccc12', '21.4 µM (inactive)'),
  ('COc1cc(C(O)c2ccc3c(c2)OCO3)cc(OC)c1OC (configuration not stated)', '> 100 µM (inactive)'),
  ('COC(=O)NN=C1C(C)(C)C(=NNC(=O)OC)C1(C)C', '> 100 µM (inactive)'),
  ('CN(C)c1ccc(C(C#N)N2CCCN(C(C#N)c3ccc(N(C)C)cc3)C2c2ccc(N(C)C)cc2)cc1 (configuration not stated)', '> 100 µM (inactive)'),
  ('CCOC(=O)CCc1c(C)c2ccc(O)cc2oc1=O', '> 100 µM (inactive)'),
  ('COc1ccc(C[C@H](N)C(=O)N2C[C@H](CO)C[C@H](n3cnc4c(N(C)C)ncnc43)C2)cc1', '> 100 µM (inactive)'),
  ('O=C1CC(c2ccccc2)n2cccc21 (configuration not stated)', '> 100 µM (inactive)'),
  ('C/C(=N\NC(=S)NC(CCC(=O)O)C(=O)O)c1ccccn1 (configuration not stated)', '> 100 µM (inactive)'),
  ('Cc1csc(NNC(=O)Nc2ccccc2)n1', '> 100 µM (inactive)'),
  ('CSc1c(C#N)c(S)[nH]c(=O)c1C#N', '> 100 µM (inactive)'),
  ('COc1ccc(Cn2c3ccc([N+](=O)[O-])cc3c(=O)n2Cc2ccccn2)cc1', '> 100 µM (inactive)'),
  ('CC(=O)N1N=C(c2ccc3ccccc3c2O)CC1c1cccs1 (configuration not stated)', '22.2 µM (inactive)'),
  ('CCc1c(C#N)c(=O)[nH]c(=O)n1CCN1CCN(C(=O)NCCCCCCNC(=O)N2CCN(CCn3c(CC)c(C#N)c(=O)[nH]c3=O)CC2)CC1', '> 100 µM (inactive)'),
  ('CC(C)Oc1c(C2(c3ccccc3)SCCCS2)c(=O)c1=O', '> 100 µM (inactive)'),
  ('COC1C(=[N+]=[N-])C(=O)NC(=O)N1C1OC(COC(c2ccccc2)(c2ccccc2)c2ccccc2)C(O)C1O (configuration not stated)', '19.9 µM (inactive)'),
  ('Cc1ccnc2c1ccc1nc3ccccc3n12', '58.9 µM (inactive)'),
  ('O=C1Nc2cccc(Cl)c2/C1=C\c1c(-c2ccccc2)nc2n1CCS2', '17.1 µM (inactive)'),
  ('Cc1cc(S(=O)(=O)O)c(NC(=O)C(=O)C2C=CCS2(=O)=O)cc1Cl (configuration not stated)', '> 100 µM (inactive)'),
  ('Cc1nc2cc(Nc3ccccc3C(=O)O)ccc2s1', '> 100 µM (inactive)');

---

System: A549
Experiment: NCI tumour cell line growth inhibition, 48 h
Calls of active or inactive are those of the source. Cut-off read from the data, not from the text of the source: active = GI50 up to about 1.1 µM and inactive = higher.
Measured GI50 values are reported for all entries that follow.
property name: GI50

INSERT INTO results (compound, result) VALUES
  ('Sc1nnc(CNc2ccc(-c3nnc(S)n3-c3ccc(Cl)cc3)cc2)n1-c1ccc(Cl)cc1', '31.6 µM (inactive)'),
  ('CC1=C(C#N)C(=O)CC(c2ccc(Cl)cc2)N(C)N1 (stereo not given)', '> 100 µM (inactive)'),
  ('CSc1c(C#N)c(S)[nH]c(=O)c1C#N', '40.7 µM (inactive)'),
  ('COC(=O)C1C=CN(N(C)C)C2=C1C(=O)c1c(O)cccc1C2=O (stereo not given)', '2.47 µM (inactive)'),
  ('CCOC(=O)CC(=O)N(c1ccc(OC)cc1)C(C(=O)OC)c1ccccc1 (stereo not given)', '> 100 µM (inactive)'),
  ('CS(=O)(=O)Nc1ccc2c(c1)N(S(C)(=O)=O)CC2COS(C)(=O)=O (stereo not given)', '> 100 µM (inactive)'),
  ('CC(CCC(=O)O)[C@H]1CCC2[C@H]3C(CC(=O)[C@@]21C)[C@@]1(C)CCC(O)C[C@H]1C[C@@H]3O (stereo not given in full)', '> 100 µM (inactive)'),
  ('COC(=O)/C(=N\NC(=O)c1ccccc1O)C(C#N)c1ccc(Cl)cc1 (stereo not given)', '3.85 µM (inactive)'),
  ('N#Cc1cc(C#N)c(Cl)nc1N', '> 10 µM (inactive)'),
  ('CCCCCCCCCCCC1=C(O)C(=O)C(CC2=C(O)C(=O)C(CCCCCCCCCCC)=C(O)C2=O)=C(O)C1=O', '> 100 µM (inactive)');

---

// HCT-15 log10 of GI50 records
property name: log10 of GI50 (log10 of the value in µM)

INSERT INTO results (compound, number) VALUES
  ('C=CCC1(O)c2cccc(O)c2C(=O)c2cccc(O)c21 (centres undefined)', 1.09),
  ('CC(=O)OC[C@@]12CC[C@H]3C(C)(C)CCC[C@]3(C)[C@H]1C[C@@H](C1=CC(=O)O[C@H]1O)O2', 0.31),
  ('CC(C)/C(Cl)=N/OC(NC(=O)Nc1ccc(Cl)c(Cl)c1)(C(F)(F)F)C(F)(F)F', 1.12),
  ('CC(=O)OCC1OC(n2c(=S)n(-c3ccccc3)c(=O)c3cc(Br)cc(Br)c32)C(OC(C)=O)C(OC(C)=O)C1OC(C)=O (centres undefined)', 1.92),
  ('COC(=O)/C=C1\C(CO[Si](C)(C)C(C)(C)C)OC(n2ccc(=O)[nH]c2=O)C1O (centres undefined)', 0.83),
  ('CC(=O)O[C@H]1C(=O)O[C@@H]2C[C@H]3C(C)=CC(=O)[C@@H](O)[C@]3(C)[C@H]3[C@@]4(O)OC[C@]32[C@@H]1[C@@H](C)[C@H]4O', -1.12),
  ('COc1ccc2c(c1)CN([C@@H](C)[C@H]1CC[C@H]3[C@@H]4CC[C@H]5C[C@@H](O)CC[C@]5(C)[C@H]4CC[C@]13C)CO2', 0.12),
  ('COc1ccc(C2C=C(c3ccc4c(c3)OCO4)Oc3c2c(=O)oc2ccccc32)cc1OC (centres undefined)', -0.38),
  ('CC(C)c1ccc(NC(=S)NC(=O)c2ccccc2)cc1', 1.25),
  ('CCCCCCCCCCCCCCCC1(OC)C[N+](C)(C)CCO1 (centres undefined)', 0.78),
  ('CCOP(=O)(CCC(O)CNc1nc(N)nc(Cl)c1/N=N/c1ccc(Cl)cc1)OCC (centres undefined)', 0.84),
  ('CC(C)C1=CC23CCC4C(C)(C(=O)O)CCCC4(C)C2CC1C1C(=O)N(c2ccccc2)C(=O)C13 (centres undefined)', 1.49),
  ('Fc1ccc(/C=C2\COCC3=C2NC(=S)NC3c2ccc(F)cc2)cc1 (centres undefined)', 1.20),
  ('COc1cccc(N2C(=O)/C(=C/c3ccc(N(CCC#N)CCC#N)cc3)N=C2c2cc([N+](=O)[O-])ccc2Cl)c1', 1.70),
  ('O=[N+]([O-])c1ccc(-n2nc3ccc4c(no[n+]4[O-])c3[n+]2[O-])c([N+](=O)[O-])c1', 0.43),
  ('CSc1c(C#N)c(S)[nH]c(=O)c1C#N', 1.65),
  ('CCOc1ccc2c(ccc(/C=C/c3cc(C)c4cccnc4c3O)[n+]2C)c1', 0.56),
  ('O=C(O)c1ccccc1NC(=S)c1ccccc1', 1.48),
  ('CC(C)(C)OC(=O)N1[C@@H]2Cc3ccc(N)cc3[C@@]1(C)c1ccccc12', 1.05),
  ('COc1ccc2nc(NC(=O)/C(C#N)=C/c3ccccc3)sc2c1', 1.39);
